- targetSystem: Botulinum neurotoxin type A (Clostridium botulinum) (UniProt P0DPI0)
- Sequence (P0DPI0 whole entry, looked up): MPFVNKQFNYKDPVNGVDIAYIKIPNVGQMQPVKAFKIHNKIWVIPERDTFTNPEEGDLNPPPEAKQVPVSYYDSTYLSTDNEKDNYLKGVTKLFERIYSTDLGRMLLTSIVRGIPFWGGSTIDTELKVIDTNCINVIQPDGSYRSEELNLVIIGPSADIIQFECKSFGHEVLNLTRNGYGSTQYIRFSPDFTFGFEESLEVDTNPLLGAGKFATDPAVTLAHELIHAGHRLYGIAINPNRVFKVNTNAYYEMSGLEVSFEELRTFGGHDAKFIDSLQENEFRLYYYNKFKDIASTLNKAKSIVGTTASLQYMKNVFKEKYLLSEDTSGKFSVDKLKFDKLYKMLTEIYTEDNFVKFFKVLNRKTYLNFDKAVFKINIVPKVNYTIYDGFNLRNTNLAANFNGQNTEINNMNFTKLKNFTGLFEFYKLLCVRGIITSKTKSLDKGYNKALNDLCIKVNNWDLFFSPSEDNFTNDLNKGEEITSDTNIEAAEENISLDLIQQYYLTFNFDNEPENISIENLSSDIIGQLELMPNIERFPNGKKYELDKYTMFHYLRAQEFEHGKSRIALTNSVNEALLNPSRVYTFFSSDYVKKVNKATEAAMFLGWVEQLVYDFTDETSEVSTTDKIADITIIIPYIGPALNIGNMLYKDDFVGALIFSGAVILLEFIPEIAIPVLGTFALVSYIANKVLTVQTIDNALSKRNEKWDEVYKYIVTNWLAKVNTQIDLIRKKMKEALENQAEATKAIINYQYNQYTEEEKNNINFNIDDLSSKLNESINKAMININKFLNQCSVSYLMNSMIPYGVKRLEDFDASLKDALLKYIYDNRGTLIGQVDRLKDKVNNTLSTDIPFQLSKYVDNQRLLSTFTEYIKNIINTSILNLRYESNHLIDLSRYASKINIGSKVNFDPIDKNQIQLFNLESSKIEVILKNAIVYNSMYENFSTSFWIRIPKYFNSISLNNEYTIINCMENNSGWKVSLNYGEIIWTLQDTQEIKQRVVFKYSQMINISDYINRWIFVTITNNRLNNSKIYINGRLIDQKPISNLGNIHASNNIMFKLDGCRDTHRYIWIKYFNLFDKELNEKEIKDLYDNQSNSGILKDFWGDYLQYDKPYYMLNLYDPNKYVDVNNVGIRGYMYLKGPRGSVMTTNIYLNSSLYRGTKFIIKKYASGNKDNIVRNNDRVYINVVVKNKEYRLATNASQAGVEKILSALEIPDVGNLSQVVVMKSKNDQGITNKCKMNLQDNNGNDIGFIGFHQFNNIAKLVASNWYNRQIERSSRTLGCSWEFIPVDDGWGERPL
- protocolDetails: BoNT/A light chain protease inhibitors, biochemical, multiplex microsphere flow cytometry, validation set (AID 588460)
- conditionSummary: at 10 µM, stronger effect = higher value
measurementKind: inhibition (%)
Your answer should be a plain number; it is taken to be in %.

Here is how some compounds turned out for inhibition.
>>> datavalue("C/C(=N\\N=C1\\NC(=O)C(CC(=O)Nc2ccc(Cl)cc2)S1)c1ccco1 (centres undefined)")
0.1
>>> datavalue("Cc1ccc2occ(C(=O)c3ccco3)c(=O)c2c1")
-0.5
>>> datavalue("Cc1ccc(N2C(=O)c3ccccc3C2=O)cc1C")
0.5

Give the reported inhibition for COc1ccc(/C=C/C(=O)NC(=S)NN2CCCCC2c2cccnc2)cc1 (centres undefined) (system: Botulinum neurotoxin type A (Clostridium botulinum) (UniProt P0DPI0)).
1.8
